I'd appreciate it if you could supply HC50 at 1 h values for the items below.
# Assay text: Cytotoxicity assay: hemolysis of erythrocytes
# Type: cell-based
# Experimental conditions: 50% hemolysis, human erythrocytes, 1 h at 37° C., pH 7.4; read-out: LC50 Erythrocytes Human
One number for each entry, in µM.

Molecule: N=C(N)NCCC[C@H](NC(=O)[C@H](CCCNC(=N)N)NC(=O)[C@H](Cc1ccccc1)NC(=O)[C@H](CCc1ccccc1)NC(=O)[C@H](Cc1ccccc1)NC(=O)[C@@H](N)Cc1ccccc1)C(=O)N[C@@H](Cc1ccccc1)C(=O)N[C@@H](Cc1ccccc1)C(N)=O [compound 53]
Measured attribute: HC50 at 1 h
Unit spec: µM
Measurement: 140

# context switch: different molecule, same HC50 at 1 h
**Query** Any idea what its HC50 at 1 h is? The molecule is CC[C@H](C)[C@H](NC(=O)[C@H](CCCNC(=N)N)NC(=O)[C@H](CCCNC(=N)N)NC(=O)[C@H](CC(C)C)NC(=O)[C@H](CCc1ccccc1)NC(=O)[C@H](Cc1ccccc1)NC(=O)[C@@H](N)Cc1ccccc1)C(=O)N[C@@H](Cc1ccccc1)C(N)=O [compound 19]
**Result** 170
